# Assayed System: HLA-B*57:01
# Measurement Description: IEDB peptide-MHC binding, purified MHC/direct/fluorescence; filed as Kd, often an IC50 or EC50 that approximates it; bounds were set here for any values at or beyond the usual limits of such assays
# Condition Details: source organism: Escherichia coli O157:H7 str. EC869
pKd: −log10 of the molar value.
Property: pKd

{"Chain": "YGSWFGLIY", "Assayed System": "HLA-B*57:01", "Readout Value": "≤ 4.70"}

====

# Assayed System: HLA-A*02:03
# Measurement Description: IEDB peptide-MHC binding, purified MHC/competitive/radioactivity; filed as Kd, often an IC50 or EC50 that approximates it; bounds were set here for any values at or beyond the usual limits of such assays
# Condition Details: source organism: Dengue virus 2 16681-PDK53

{"Chain": "IMKDGRVLV", "Kd (nM)": 19}

Cited source: the Immune Epitope Database (IEDB)
